- Tested on: HCI-016 (organoid from a triple-negative breast cancer xenograft)
- Assay Remarks: CTG-3D luminescence at 96 h relative to day-0 seeding control (ratio to day 0); higher = more growth / less cytotoxicity; PDxO 3D drug screen (set 2), 96 h, CTG-3D normalised to day-0 seeding control.
- Experimental Parameters: 100 µM; days in culture: 327
Below, each entry is listed alongside its reported CTG-3D luminescence at 96 h.
No unit in the answer, please; the number alone is enough.

Some solved entries appear below for comparison.
INSERT INTO measurements (compound, reported) VALUES
  ('Cc1c(CN2CCN(C(=O)[C@H](C)O)CC2)sc2c(N3CCOCC3)nc(-c3cnc(N)nc3)nc12 [apitolisib]', 0.546),
  ('C[C@@H](Nc1cc(F)cc(F)c1)c1cc(C(=O)N(C)C)cc2c(=O)cc(N3CCOCC3)oc12 [AZD-8186]', 0.672),
  ('CC(C)n1nc(-c2ccc3oc(N)nc3c2)c2c(N)ncnc21 [sapanisertib]', 0.258);

# evaluate next
[ask] Bench note: what CTG-3D luminescence at 96 h did CC(=O)O[C@@]12CO[C@@H]1C[C@H](O)[C@@]1(C)C(=O)[C@H](O)C3=C(C)[C@@H](OC(=O)[C@H](O)[C@@H](NC(=O)OC(C)(C)C)c4ccccc4)C[C@@](O)([C@@H](OC(=O)c4ccccc4)[C@H]21)C3(C)C [docetaxel] show?
[reply] 0.0762

###

- Tested on: HCI-027 (organoid from a triple-negative breast cancer xenograft)
- Assay Remarks: CTG-3D luminescence at 96 h relative to day-0 seeding control (ratio to day 0); higher = more growth / less cytotoxicity; PDxO 3D drug screen (set 2), 96 h, CTG-3D normalised to day-0 seeding control.
- Experimental Parameters: 0.005 µM; days in culture: 186
Outcome Measure: CTG-3D luminescence at 96 h
No unit in the answer, please; the number alone is enough.

INSERT INTO measurements (chem_smiles, subject_of_test, reported) VALUES
  ('C[C@@H](Nc1cc(F)cc(F)c1)c1cc(C(=O)N(C)C)cc2c(=O)cc(N3CCOCC3)oc12', 'HCI-027', 2.54);

[ask] Bench note: what CTG-3D luminescence at 96 h did CO[C@H]1C[C@@H]2CC[C@@H](C)[C@@](O)(O2)C(=O)C(=O)N2CCCC[C@H]2C(=O)O[C@H]([C@H](C)C[C@@H]2CC[C@@H](OCCO)[C@H](OC)C2)CC(=O)[C@H](C)/C=C(\C)[C@@H](O)[C@@H](OC)C(=O)[C@H](C)C[C@H](C)/C=C/C=C/C=C/1C show?
[reply] 2.18

[ask] Bench note: what CTG-3D luminescence at 96 h did CCOc1ccn(-c2ccc(F)cc2)c(=O)c1C(=O)Nc1ccc(Oc2ccnc(N)c2Cl)c(F)c1 show?
[reply] 1.53

[ask] Bench note: what CTG-3D luminescence at 96 h did CO[C@H]1C[C@@H]2CC[C@@H](C)[C@@](O)(O2)C(=O)C(=O)N2CCCC[C@H]2C(=O)O[C@H]([C@H](C)C[C@@H]2CC[C@@H](O)[C@H](OC)C2)CC(=O)[C@H](C)/C=C(\C)[C@@H](O)[C@@H](OC)C(=O)[C@H](C)C[C@H](C)/C=C/C=C/C=C/1C show?
[reply] 1.74

[ask] Bench note: what CTG-3D luminescence at 96 h did CS(=O)(=O)CCNCc1ccc(-c2ccc3ncnc(Nc4ccc(OCc5cccc(F)c5)c(Cl)c4)c3c2)o1 show?
[reply] 2.88
